Origin of measurements: ChEMBL document CHEMBL1135526

# tested.on: Tyrosine-protein kinase ZAP-70 (Homo sapiens)
# Sequence (P43403 whole entry): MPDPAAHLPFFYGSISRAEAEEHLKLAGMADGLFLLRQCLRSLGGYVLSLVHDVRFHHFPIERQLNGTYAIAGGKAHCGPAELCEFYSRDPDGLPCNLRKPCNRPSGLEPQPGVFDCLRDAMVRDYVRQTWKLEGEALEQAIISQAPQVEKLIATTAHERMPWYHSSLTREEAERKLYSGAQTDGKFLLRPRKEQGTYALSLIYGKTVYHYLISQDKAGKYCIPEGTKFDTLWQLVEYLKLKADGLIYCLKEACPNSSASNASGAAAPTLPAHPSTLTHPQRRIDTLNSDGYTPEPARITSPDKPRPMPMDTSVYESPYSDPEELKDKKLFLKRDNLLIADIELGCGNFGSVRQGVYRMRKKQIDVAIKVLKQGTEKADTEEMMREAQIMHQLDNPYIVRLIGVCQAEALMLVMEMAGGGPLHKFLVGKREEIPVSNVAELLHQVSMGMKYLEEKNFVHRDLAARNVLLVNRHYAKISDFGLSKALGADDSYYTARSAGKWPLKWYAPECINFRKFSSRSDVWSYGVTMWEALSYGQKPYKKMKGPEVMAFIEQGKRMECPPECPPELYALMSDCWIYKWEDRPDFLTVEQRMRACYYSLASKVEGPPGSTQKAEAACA
assay.endpoint: IC50 (µM)

molecular.string | assay.endpoint | recorded.value
Cc1[nH]c(=O)c2c(ccc3nc(Nc4c(Cl)cccc4Cl)[nH]c32)c1C | IC50 | 80

###

# tested.on: Tyrosine-protein kinase Lck (Homo sapiens)
# Sequence (P06239 whole entry): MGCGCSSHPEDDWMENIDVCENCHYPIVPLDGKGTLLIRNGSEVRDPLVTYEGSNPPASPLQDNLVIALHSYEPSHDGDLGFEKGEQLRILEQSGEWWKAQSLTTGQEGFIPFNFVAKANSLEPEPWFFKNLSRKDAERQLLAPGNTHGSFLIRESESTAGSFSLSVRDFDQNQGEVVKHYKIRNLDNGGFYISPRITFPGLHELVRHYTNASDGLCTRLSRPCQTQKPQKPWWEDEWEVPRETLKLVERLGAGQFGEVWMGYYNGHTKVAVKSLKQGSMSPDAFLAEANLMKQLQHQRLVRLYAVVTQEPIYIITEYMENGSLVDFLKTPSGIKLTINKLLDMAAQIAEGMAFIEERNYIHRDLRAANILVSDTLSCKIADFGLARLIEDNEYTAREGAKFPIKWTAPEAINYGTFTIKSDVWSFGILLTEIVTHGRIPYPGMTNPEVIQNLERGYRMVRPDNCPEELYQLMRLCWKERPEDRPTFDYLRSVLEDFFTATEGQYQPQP
# test.summary: Inhibitory activity against recombinant human p56 Lck tyrosine kinase
In this section, each of the compounds is paired with its reported IC50.

molecular.string | unit.symbol | relation.operator | IC50
CC1(C)CNC(=O)c2c1ccc1nc(Nc3c(Cl)cccc3Cl)[nH]c21 | µM | = | 1.1
CCc1cccc(CC)c1Nc1nc2ccc3c(c2[nH]1)C(=O)NC(=O)C3(C)C | µM | > | 40
Cc1cccc(Cl)c1Nc1nc2c3c(ccc2[nH]1)C(C)(C)C(=O)NC3=O | µM | = | 0.77
CC1(C)C(=O)NC(=O)c2c1ccc1[nH]c(Nc3c(Cl)cc(Cl)cc3Cl)nc21 | µM | = | 0.73
CC1(C)CNCc2c1ccc1[nH]c(Nc3c(Cl)cccc3Cl)nc21 | µM | > | 40
O=C1NCCc2ccc3[nH]c(Nc4c(Cl)cccc4Cl)nc3c21 | µM | = | 0.38
CN1C(=O)c2c(ccc3nc(Nc4c(Cl)cccc4Cl)[nH]c23)C(C)(C)C1=O | µM | = | 9.6
CC1(C)C(=O)NC(=O)c2c1ccc1[nH]c(Nc3c(F)cccc3F)nc21 | µM | = | 11
Cn1c(Nc2c(Cl)cccc2Cl)nc2c3c(ccc21)C(C)(C)C(=O)NC3=O | µM | = | 2.5
CN(c1nc2c3c(ccc2[nH]1)C(C)(C)C(=O)NC3=O)c1c(Cl)cccc1Cl | µM | = | 2.5
